Below, each entry is listed with its recorded IC50.
MEASURED TARGET: EGFR L858R Ba/F3 cells (Homo sapiens (Human), UniProt P00533, L858R)
METHOD SUMMARY: Ba/F3 cell growth inhibition (MTS assay), EGFR L858R
Assay type: cell-based
RECORDED CONDITIONS: Assay 1; L858R; read-out: EGFR Ba/F3 cells IC 50 (nM) Assay 1 L858R
Provide the reading as a plain figure in nM.

C=CC(=O)Nc1cccc(N(C(=O)N[C@@H](C)c2ccccc2)c2cc(Nc3ccc(N4CCN(C)CC4)cc3OC)ncn2)c1 [Compound 34A] | 0.51
C=CC(=O)Nc1cccc(N(C(=O)NCc2ccccc2)c2cc(NC)ncn2)c1 [Compound 15A] | 17.7

Form field IC50, entry COc1ccc(NC(=O)/C=C/CN(C)C)cc1Nc1cc(N(C)C(=O)Nc2ccccc2)ncn1 [Compound 20A] : 0.994

###

MEASURED TARGET: EGFR Del/T790M Ba/F3 cells (Homo sapiens, UniProt P00533, T790M, cells depend on it, form not given)
METHOD SUMMARY: Ba/F3 cell growth inhibition (MTS assay), EGFR Del/T790M
Assay type: cell-based
RECORDED CONDITIONS: 100 nM drug; Table G
Note to self: values exactly at 90 % Control are MET. So EGFR activity (% Control, 100 nM drug) Del/T790M at or above 90 % Control is MET, below is NOT MET.

Sample answers from the record:
C=CC(=O)N1CCC[C@H]1C(=O)Nc1cc2c(N(C)C(=O)Nc3ccccc3)ncnc2cc1OC [Compound 27A] | NOT MET
C=CC(=O)Nc1cccc(N(C(=O)NCc2ccccc2)c2cc(Nc3ccc(N4CCN(C)CC4)cc3)ncn2)c1 [Compound 29A] | NOT MET

Could you please find out whether C=CC(=O)N1CCC[C@@H]1C(=O)Nc1ccc(OC)c(Nc2cc(N(C)C(=O)NCc3ccccc3)ncn2)c1 [Compound 24A] has EGFR activity (% Control, 100 nM drug) Del/T790M that meets 90 % Control or exceeds it?
MET

Could you please find out whether C=CC(=O)N1CC[C@H](CN(C(=O)Nc2ccccc2)c2cc(Nc3ccc(N4CCN(C)CC4)cc3OC)ncn2)C1 [Compound 33A] has EGFR activity (% Control, 100 nM drug) Del/T790M that meets 90 % Control or exceeds it?
MET

###

MEASURED TARGET: EGFR L858R/T790M/L718Q Ba/F3 cells (Homo sapiens (Human), UniProt P00533, L718Q/L858R/T790M)
METHOD SUMMARY: Ba/F3 cell growth inhibition (MTS assay), EGFR L858R/T790M/L718Q
Assay type: cell-based
RECORDED CONDITIONS: Assay 1; T/L/L718Q; read-out: EGFR Ba/F3 cells IC 50 (nM) Assay 1 T/L/L718Q
Below, each entry is listed with its recorded IC50.
Provide the reading as a plain figure in nM.

Below are worked cases with known answers.
C=CC(=O)Nc1cccc(N(C(=O)NCc2cccs2)c2cc(Nc3ccc(N4CCOCC4)cc3OC)ncn2)c1 [Compound 55A] | 657
C=CC(=O)Nc1ccc(OC)c(Nc2cc(N(C)C(=O)Nc3ccccc3)ncn2)c1 [Compound 74A] | 780
C=CC(=O)Nc1cccc(N(C(=O)Nc2ccccc2)c2cc(Nc3ccc(N4CCN(C)CC4)cc3OC)ncn2)c1 [Compound 1A] | 178
COc1ccc(NC(=O)/C=C/CN(C)C)cc1Nc1cc(N(C)C(=O)Nc2ccccc2)ncn1 [Compound 20A] | 917

Next, consider the following compound.
Form field IC50, entry C=CC(=O)Nc1cccc(N(C(=O)NCc2ccccc2)c2cc(NC)ncn2)c1 [Compound 15A] : 3260

Entry source: patent US10906878B2
